- Test system: Staphylococcus aureus
- assay: Antibacterial activity against Staphylococcus aureus ATCC 6538 after 24 hrs by NCCLS method
- Assay type: functional
- experimentalSetup: ATCC 6538, 24 h
attributeMeasured: MIC (µg/mL)

INSERT INTO assay_data (mol, reportedresult) VALUES
  ('CC(=O)OC[C@H]1O[C@@H](Sc2nnc(-c3ccccc3O)n2/N=C/c2cc(Br)ccc2O)[C@H](OC(C)=O)[C@@H](OC(C)=O)[C@@H]1OC(C)=O', 64),
  ('CC(=O)OC[C@H]1O[C@@H](Sc2nnc(-c3ccccc3)n2/N=C/c2ccccc2Cl)[C@H](OC(C)=O)[C@@H](OC(C)=O)[C@@H]1OC(C)=O', 128),
  ('CC(=O)OC[C@H]1O[C@@H](Sc2nnc(-c3ccccc3O)n2/N=C/c2cc(Br)cc(Br)c2O)[C@H](OC(C)=O)[C@@H](OC(C)=O)[C@@H]1OC(C)=O', 32),
  ('CC(=O)OC[C@H]1O[C@@H](Sc2nnc(-c3ccccc3O)n2/N=C/c2ccccc2O)[C@H](OC(C)=O)[C@@H](OC(C)=O)[C@@H]1OC(C)=O', 128),
  ('CC(=O)OC[C@H]1O[C@@H](Sc2nnc(-c3ccccc3)n2/N=C/c2ccccc2)[C@H](OC(C)=O)[C@@H](OC(C)=O)[C@@H]1OC(C)=O', 64),
  ('CC(=O)OC[C@H]1O[C@@H](Sc2nnc(-c3ccccc3O)n2/N=C/c2ccccc2)[C@H](OC(C)=O)[C@@H](OC(C)=O)[C@@H]1OC(C)=O', 128),
  ('CC(=O)OC[C@H]1O[C@@H](Sc2nnc(-c3ccccc3)n2/N=C/c2ccccc2O)[C@H](OC(C)=O)[C@@H](OC(C)=O)[C@@H]1OC(C)=O', 64),
  ('CC(=O)OC[C@H]1O[C@@H](Sc2nnc(-c3ccccc3)n2/N=C/c2cc(Cl)ccc2O)[C@H](OC(C)=O)[C@@H](OC(C)=O)[C@@H]1OC(C)=O', 64),
  ('CC(=O)OC[C@H]1O[C@@H](Sc2nnc(-c3ccccc3O)n2/N=C/c2cc(Cl)ccc2O)[C@H](OC(C)=O)[C@@H](OC(C)=O)[C@@H]1OC(C)=O', 128),
  ('Oc1cc(Cl)ccc1Oc1ccc(Cl)cc1Cl', 4),
  ('CC(=O)OC[C@H]1O[C@@H](Sc2nnc(-c3ccccc3)n2/N=C/c2cc(Br)ccc2O)[C@H](OC(C)=O)[C@@H](OC(C)=O)[C@@H]1OC(C)=O', 32),
  ('CC(=O)OC[C@H]1O[C@@H](Sc2nnc(-c3ccccc3O)n2/N=C/c2ccccc2Cl)[C@H](OC(C)=O)[C@@H](OC(C)=O)[C@@H]1OC(C)=O', 128),
  ('OC(Cn1cncn1)(Cn1cncn1)c1ccc(F)cc1F', 16),
  ('CC(=O)OC[C@H]1O[C@@H](Sc2nnc(-c3ccccc3)n2/N=C/c2cc(Br)cc(Br)c2O)[C@H](OC(C)=O)[C@@H](OC(C)=O)[C@@H]1OC(C)=O', 16);
